- tested target: T1, cMet-ECD-hFc (Homo sapiens, UniProt P08581)
- T1 construct: made in house; host or cells: HEK293E
- T1 sequence (P08581 25-932): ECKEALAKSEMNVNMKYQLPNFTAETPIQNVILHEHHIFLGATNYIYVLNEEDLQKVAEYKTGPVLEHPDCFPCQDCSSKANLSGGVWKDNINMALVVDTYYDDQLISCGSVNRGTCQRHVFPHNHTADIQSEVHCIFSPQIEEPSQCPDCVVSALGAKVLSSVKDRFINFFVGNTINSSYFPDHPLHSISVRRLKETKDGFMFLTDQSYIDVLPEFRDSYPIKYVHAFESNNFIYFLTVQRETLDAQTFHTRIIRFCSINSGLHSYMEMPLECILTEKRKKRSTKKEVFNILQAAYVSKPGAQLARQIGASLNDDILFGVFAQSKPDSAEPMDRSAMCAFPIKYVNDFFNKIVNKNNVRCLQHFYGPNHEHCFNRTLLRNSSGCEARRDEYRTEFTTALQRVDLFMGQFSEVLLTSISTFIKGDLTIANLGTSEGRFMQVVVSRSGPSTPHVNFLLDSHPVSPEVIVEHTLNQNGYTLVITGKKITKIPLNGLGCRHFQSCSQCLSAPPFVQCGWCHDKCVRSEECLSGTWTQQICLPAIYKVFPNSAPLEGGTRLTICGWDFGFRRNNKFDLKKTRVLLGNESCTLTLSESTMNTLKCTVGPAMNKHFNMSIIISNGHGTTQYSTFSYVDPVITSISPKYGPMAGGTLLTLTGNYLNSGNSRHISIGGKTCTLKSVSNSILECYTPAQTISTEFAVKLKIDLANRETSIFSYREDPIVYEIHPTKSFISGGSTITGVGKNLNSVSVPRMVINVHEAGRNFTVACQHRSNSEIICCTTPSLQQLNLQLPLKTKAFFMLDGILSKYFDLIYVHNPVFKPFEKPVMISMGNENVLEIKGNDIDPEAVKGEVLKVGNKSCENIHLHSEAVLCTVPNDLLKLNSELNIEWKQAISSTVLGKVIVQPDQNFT
- method description: ELISA affinity of murine-derived antibodies to human MET-ECD-hFc
- Type: binding
Recorded cMet-ECD-hFc (EC50 = ng/ml) by entry

molecule	unit of measurement	cMet-ECD-hFc (EC50 = ng/ml)
44H10E8: murine-derived anti-cMET monoclonal antibody; VL SEQ ID NO: 5, VH SEQ ID NO: 6 (antibody, V domains shown) VH: QVHLQQSGAELARPGASVKMSCKASGYTFISYTIHWVKQSPGQGLEWIGYINPSSGYAKNNPKFQDKATLTADTSSTTAYIQLSSLTSEDSAVYYCTRPYGDFVDWYFDVWGTGTTVTVSS VL: NIMMTQSPSSLAVSAGEKVTMNCKSSQSVLYFSNQKNCLAWYQQKPGQSPKLLIYWASTRESGVPDRFTGSGSGTDFTLTISSVQADDLAVYYCQQYLSSLTFGAGTKLELK	ng/mL	15.76
41F5B2: murine-derived anti-cMET antibody of Table 1; probably clone 51D5B2 (VL SEQ ID NO: 7, VH SEQ ID NO: 8) (antibody, V domains shown) VH: EVRLEDSGGGFVQPGGSMKISCVASGFTFSNYWMNWVRQSPEKGLEWVAQIRLKSLNYATHYAESVKGRFTISRDDSRNSVYLQMNNLRAEDAGIYYCTEEGFAYWGRGTLVTVSA VL: IVMTQSPASLPVSLGQRATISCRASESVDDYGVSFVNWFQQKPGQPPKLLIYTASVQESGVPARFSGSGSGTDFRLNIHPLEEDDTAMYFCQQSKEIPPTFGGGTKLEIK	ng/mL	4.807
55A10G6: murine-derived anti-cMET monoclonal antibody; VL SEQ ID NO: 3, VH SEQ ID NO: 4 (antibody, V domains shown) VH: QIQLQQSGPELVKPGASVKISCKASGYTFTDYYLNWVRQRPGQGLEWIGWIFPGSGNTKYIEKFKGKATLTVDTSSSTAYMLLSSLTSEDSAVYFCAGGDYGGFTYWGQGTLVAVSA VL: DIQMTQSPPSLSASVGETVTITCGASENIYGALNWYQRKQGKSPQLLIYGATNLAAGMSSRFSGSGSGRQFSLKISSLHPDDVATYYCQNVLSEPLTFGAGTKLELK	ng/mL	7.701

Origin of values: patent US20260216354A1
